Tested on: E. faecium T62764 (VRE)
testDescription: microbe, parasite or virus in culture
conditions: T62764 (VRE)
Numbered stars: 1 amine (or outer) side, 2 acyl side, 3 side chain; on linkers, the order of the positions; unused ones are H or OH. Square brackets hold non-standard residues; d marks the D form. Peptide text beside a SMILES is read from it. X1 = CC(C)[C@H](C)N(CC(=O)[*:2])[*:1]; Nspe = C[C@H](NCC(=O)O)c1ccccc1; Nphe = O=C(O)CNCc1ccccc1; Nlys = NCCCCNCC(=O)O
parameter: MIC

Data point: C[C@@H](c1ccccc1)N(CC(N)=O)C(=O)CN(CCCCN)C(=O)CN(CCCCN)C(=O)CN(C(=O)CN(C(=O)CN(CCCCN)C(=O)CN(C(=O)CN(CCCCN)C(=O)CN(CCCCN)C(=O)CN(C(=O)CN(C(=O)CNCCCCN)[C@@H](C)c1ccccc1)[C@@H](C)c1ccccc1)[C@@H](C)c1ccccc1)[C@@H](C)c1ccccc1)[C@@H](C)c1ccccc1 [1-NLys5,11, H-(NLys-Nspe-Nspe-NLys-NLys-Nspe)2-NH2] (H-[Nlys][Nspe][Nspe][Nlys][Nlys][Nspe][Nlys][Nspe][Nspe][Nlys][Nlys][Nspe]-NH2) ; MIC = 8 µg/mL

Data point: C[C@@H](c1ccccc1)N(CC(N)=O)C(=O)CN(C(=O)CN(CCCCN)C(=O)CN(C(=O)CN(C(=O)CN(CCCCN)C(=O)[C@@H]1CCCN1C(=O)CN(C(=O)CN(CCCCN)C(=O)CN(C(=O)CN(C(=O)CNCCCCN)[C@@H](C)c1ccccc1)[C@@H](C)c1ccccc1)[C@@H](C)c1ccccc1)[C@@H](C)c1ccccc1)[C@@H](C)c1ccccc1)[C@@H](C)c1ccccc1 [Peptoid 1-Pro6] (H-[Nlys][Nspe][Nspe][Nlys][Nspe]P[Nlys][Nspe][Nspe][Nlys][Nspe][Nspe]-NH2) ; MIC = 1 µg/mL

Data point: CC(C)[C@H](C)N(CC(=O)N(CC(=O)N(CCCCN)CC(=O)N(CC(=O)N(CC(=O)N(CCCCN)CC(=O)N(CC(=O)N(CC(=O)N(CCCCN)CC(=O)N(CC(=O)N(CC(N)=O)[C@@H](C)c1ccccc1)[C@@H](C)C(C)C)[C@@H](C)c1ccccc1)[C@@H](C)C(C)C)[C@@H](C)c1ccccc1)[C@@H](C)C(C)C)[C@@H](C)c1ccccc1)C(=O)CNCCCCN [1-Nsdp2.5.8.11, H-(NLys-Nsdp-Nspe)4-NH2] (H-[Nlys][X1][Nspe][Nlys][X1][Nspe][Nlys][X1][Nspe][Nlys][X1][Nspe]-NH2) ; MIC = 2 µg/mL

Data point: C[C@@H](c1ccccc1)N(CC(=O)N(CC(=O)N(CCCCN)CC(=O)N(CC(=O)N(CC(=O)N(CCCCN)CC(=O)N(CC(=O)N(CC(=O)N(CCCCN)CC(=O)N(CC(=O)N(CC(N)=O)Cc1ccccc1)Cc1ccccc1)Cc1ccccc1)Cc1ccccc1)Cc1ccccc1)Cc1ccccc1)Cc1ccccc1)C(=O)CNCCCCN [Peptoid 1ach-Nspe2, H-(NLys-Nspe-Npm)- (NLys-Npm-Npm)3-NH2] (H-[Nlys][Nspe][Nphe][Nlys][Nphe][Nphe][Nlys][Nphe][Nphe][Nlys][Nphe][Nphe]-NH2) ; MIC = 2 µg/mL

###

System: E. faecalis F43559 (VRE)
testDescription: microbe, parasite or virus in culture
conditions: Enterococcus faecalis, VRE
parameter: MIC (µg/mL)
# unit: µg/mL | format: bare number

Data point: C[C@@H](O)[C@H]1C(=O)N2C(C(=O)O)=C(SCCN=CN)C[C@H]12 [Imipenem, reference compound] ; MIC = 2

Data point: NC[C@H]1O[C@H](O[C@H]2[C@H](O)[C@@H](O[C@H]3O[C@H](CO)[C@@H](O)[C@H](N)[C@H]3O)[C@H](N)C[C@@H]2N)[C@H](N)C[C@@H]1O [Tobramycin, reference compound] ; MIC = 32

Data point: O=C(O)c1cn(C2CC2)c2cc(N3CCNCC3)c(F)cc2c1=O [Ciprofloxacin, reference compound] ; MIC = 32
